Reference source for all entries: patent US10052320B2

# Subject of test: FGFR3 (h) (Homo sapiens, UniProt P22607)
# Sequence (P22607 23-806): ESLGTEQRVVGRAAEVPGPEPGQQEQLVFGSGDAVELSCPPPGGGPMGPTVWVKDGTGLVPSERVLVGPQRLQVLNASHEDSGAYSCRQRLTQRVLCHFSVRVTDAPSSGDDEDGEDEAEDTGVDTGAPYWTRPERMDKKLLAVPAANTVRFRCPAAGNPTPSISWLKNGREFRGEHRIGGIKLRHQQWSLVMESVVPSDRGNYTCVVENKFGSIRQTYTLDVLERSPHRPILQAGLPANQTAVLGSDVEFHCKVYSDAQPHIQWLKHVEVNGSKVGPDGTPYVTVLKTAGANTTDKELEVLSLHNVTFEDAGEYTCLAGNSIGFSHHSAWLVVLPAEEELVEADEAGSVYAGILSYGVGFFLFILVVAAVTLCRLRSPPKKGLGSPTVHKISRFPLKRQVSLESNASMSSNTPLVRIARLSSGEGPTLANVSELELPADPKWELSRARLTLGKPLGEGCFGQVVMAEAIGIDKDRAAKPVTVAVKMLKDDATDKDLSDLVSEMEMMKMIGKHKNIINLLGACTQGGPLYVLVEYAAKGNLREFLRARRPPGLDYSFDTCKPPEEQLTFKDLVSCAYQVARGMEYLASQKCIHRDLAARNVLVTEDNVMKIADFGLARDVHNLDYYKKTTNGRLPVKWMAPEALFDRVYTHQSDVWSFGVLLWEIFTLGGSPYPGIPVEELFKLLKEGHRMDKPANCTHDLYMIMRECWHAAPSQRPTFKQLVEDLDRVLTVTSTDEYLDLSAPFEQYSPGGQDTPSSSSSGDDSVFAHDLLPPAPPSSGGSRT
# Protocol details: FGFR3 (enzymatic assay), TR-FRET
# Assay type: biochemical
# Condition: read-out: FGFR 3 pIC50 (converted)
Assay metric: IC50

Example cases with answers are listed next.
[[record]]
compound = "COc1cc(OC)cc(N(CC2CC2)c2ccc3ncc(-c4nnnn4C)nc3c2)c1 [Compound 83]"
reported = "> 1000 nM"

[[record]]
compound = "COc1cc(OC)cc(N(CC2CC2)c2ccc3ncc(C(=O)NCc4ccc(F)cc4)nc3c2)c1 [Compound 101]"
reported = "> 1000 nM"


Now let's try a different one.
Record CNC(=O)OCCN(c1cc(OC)cc(OC)c1)c1ccc2ncc(-c3ccc(NC(=O)OC(C)(C)C)nc3)nc2c1 [Compound 80] , field IC50: ~347 nM

###

# Subject of test: UniProt:P22607
# Protocol details: FGFR3 (enzymatic assay), TR-FRET
# Assay type: biochemical
# Condition: read-out: FGFR 3 pIC50 (converted)
Below is a list of entries, each paired with its recorded IC50 value.
// return the numeric value with its unit appended

[[record]]
molecule = "COc1cc(OC)cc(N(CC2CC2)c2ccc3ncc(-c4cccc(N5CCOCC5)c4)nc3c2)c1"
assay_metric = "IC50"
reported = "263 nM"


Record "COc1cc(OC)cc(N(CCO)c2ccc3ncc(-c4ccnc(C(=O)NCCCCCO)c4)nc3c2)c1" , field IC50: 11.5 nM

Record "COc1cc(OC)cc(N(CCO)c2ccc3ncc(-c4ccnc(C(=O)NCCCN)c4)nc3c2)c1" , field IC50: 14.5 nM

Record "COc1cc(OC)cc(N(CC2CC2)c2ccc3ncc(C#Cc4ccncc4)nc3c2)c1" , field IC50: 214 nM

Record COCC(O)CN(c1cc(OC)cc(OC)c1)c1ccc2ncc(-c3cccnc3)nc2c1 (single isomer, unassigned) [Compound 47] , field IC50: 22.4 nM

Record "COc1cc(OC)cc(N(CCCNCC(F)(F)F)c2ccc3ncc(-c4ccnc(F)c4)nc3c2)c1" , field IC50: 56.2 nM

Record "COc1cc(OC)cc(N(CCN2CCOCC2)c2ccc3ncc(-c4ccc(NC(=O)N5CCOCC5)nc4)nc3c2)c1" , field IC50: 10 nM

Record "COc1cc(OC)cc(N(CC2CC2)c2ccc3ncc(-c4nnn[nH]4)nc3c2)c1" , field IC50: 64.6 nM

Record "COc1cc(OC)cc(N(CCCNCC(F)(F)F)c2ccc3ncc(-c4cnc(OC)nc4)nc3c2)c1" , field IC50: 100 nM

Record "COc1cc(OC)cc(N(CCCO)c2ccc3ncc(-c4ccnc(N)c4)nc3c2)c1" , field IC50: 2.09 nM

###

# Subject of test: Ba/F3-Flt3-transfected cells (Homo sapiens, UniProt P36888, cells depend on it, form not given)
# Protocol details: Ba/F3-Flt3 (minus IL3) cellular proliferation assay, Alamar Blue
# Assay type: cell-based
# Condition: minus IL3
Assay metric: BAF3-FLT3 (MIN IL3) 384 well pIC50

Example cases with answers are listed next.
[[record]]
compound = "COc1cc(OC)cc(N(CC2CC2)c2ccc3ncc(-c4nnnn4C)nc3c2)c1 [Compound 83]"
reported = "<5"

[[record]]
compound = "COCC(CN(c1cc(OC)cc(OC)c1)c1ccc2ncc(-c3cccnc3)nc2c1)OC(C)=O (single isomer, unassigned) [Compound 52]"
reported = "<5"

[[record]]
compound = "COc1cc(OC)cc(N(CC2CC2)c2ccc3ncc(Nc4cnn(C)c4)nc3c2)c1 [Compound 61]"
reported = "<5"

[[record]]
compound = "COc1cc(OC)cc(N(CCO)c2ccc3ncc(-c4ccnc(C(=O)NCCCCCO)c4)nc3c2)c1 [Compound 139]"
reported = "<5"

[[record]]
compound = "COc1cc(OC)cc(N(CCCO)c2ccc3ncc(-c4ccnc(C(=O)N5CCOCC5)c4)nc3c2)c1 [Compound 43]"
reported = "<5"


Record COc1cc(OC)cc(N(CCO)c2ccc3ncc(-c4ccc(N5CCN(C)CC5)nc4)nc3c2)c1 [Compound 163] , field BAF3-FLT3 (MIN IL3) 384 well pIC50: 5.32

Record CNC(=O)c1cc(-c2cnc3ccc(N(CCN4CCCC4=O)c4cc(OC)cc(OC)c4)cc3n2)ccn1 [Compound 25] , field BAF3-FLT3 (MIN IL3) 384 well pIC50: <5

Record COc1cc(OC)cc(N(CC2CC2)c2ccc3ncc(-c4ocnc4C)nc3c2)c1 [Compound 104] , field BAF3-FLT3 (MIN IL3) 384 well pIC50: <5

###

# Subject of test: Ba/F3-KDR-transfected cells (Homo sapiens)
# Sequence (P35968 whole entry, change not shown): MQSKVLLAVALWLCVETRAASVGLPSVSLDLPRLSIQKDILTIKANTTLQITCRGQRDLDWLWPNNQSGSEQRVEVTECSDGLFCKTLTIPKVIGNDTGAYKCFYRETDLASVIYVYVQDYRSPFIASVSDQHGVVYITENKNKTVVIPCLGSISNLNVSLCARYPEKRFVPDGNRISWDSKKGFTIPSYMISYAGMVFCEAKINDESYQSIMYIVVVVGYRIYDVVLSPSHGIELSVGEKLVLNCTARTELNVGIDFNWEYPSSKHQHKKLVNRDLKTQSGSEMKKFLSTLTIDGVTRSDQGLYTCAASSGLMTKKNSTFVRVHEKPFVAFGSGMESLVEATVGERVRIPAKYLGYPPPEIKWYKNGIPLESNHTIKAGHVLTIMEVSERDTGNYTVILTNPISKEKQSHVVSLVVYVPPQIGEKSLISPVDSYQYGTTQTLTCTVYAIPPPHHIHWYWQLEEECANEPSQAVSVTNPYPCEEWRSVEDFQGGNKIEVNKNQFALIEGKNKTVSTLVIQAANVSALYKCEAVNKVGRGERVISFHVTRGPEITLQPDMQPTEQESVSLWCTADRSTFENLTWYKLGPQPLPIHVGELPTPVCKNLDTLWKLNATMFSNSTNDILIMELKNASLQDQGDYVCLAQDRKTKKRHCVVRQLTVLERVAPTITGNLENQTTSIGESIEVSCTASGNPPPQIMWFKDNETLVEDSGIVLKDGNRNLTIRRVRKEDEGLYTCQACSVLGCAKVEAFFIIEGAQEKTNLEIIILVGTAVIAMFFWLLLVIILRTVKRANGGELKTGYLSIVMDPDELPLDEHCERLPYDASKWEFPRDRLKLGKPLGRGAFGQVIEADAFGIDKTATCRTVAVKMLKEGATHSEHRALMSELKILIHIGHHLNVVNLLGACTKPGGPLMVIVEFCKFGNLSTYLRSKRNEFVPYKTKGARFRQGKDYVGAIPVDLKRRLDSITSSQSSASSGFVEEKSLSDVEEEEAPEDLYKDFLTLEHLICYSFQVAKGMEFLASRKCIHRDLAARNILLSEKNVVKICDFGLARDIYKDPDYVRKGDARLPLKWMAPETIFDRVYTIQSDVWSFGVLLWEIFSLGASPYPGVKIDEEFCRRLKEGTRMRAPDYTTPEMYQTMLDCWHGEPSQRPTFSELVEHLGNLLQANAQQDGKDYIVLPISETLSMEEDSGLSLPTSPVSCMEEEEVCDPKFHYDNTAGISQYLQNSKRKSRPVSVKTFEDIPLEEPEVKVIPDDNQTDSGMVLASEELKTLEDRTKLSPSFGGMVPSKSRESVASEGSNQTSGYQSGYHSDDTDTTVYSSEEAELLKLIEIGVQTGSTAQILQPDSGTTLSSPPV
# Protocol details: Ba/F3-KDR (minus IL3) cellular proliferation assay, Alamar Blue
# Format: cell-based
# Condition: minus IL3
Assay metric: BAF3-KDR (MIN IL3) 384 well pIC50

Example cases with answers are listed next.
[[record]]
compound = "COc1cc(OC)cc(N(CCO)c2ccc3ncc(-c4ccccc4CCO)nc3c2)c1 [Compound 151]"
reported = "<5"

[[record]]
compound = "COc1cc(OC)cc(N(CCNC(C)C)c2ccc3ncc(-c4ccc(N5CCOCC5)nc4)nc3c2)c1 [Compound 168]"
reported = 5.75

[[record]]
compound = "COc1cc(OC)cc(N(CC2CC2)c2ccc3ncc(-c4cn[nH]n4)nc3c2)c1 [Compound 69]"
reported = "<5"

[[record]]
compound = "COc1cc(OC)cc(N(CCO)c2ccc3ncc(-c4ccc(N5CCNCC5)nc4)nc3c2)c1 [Compound 165]"
reported = 5.36

[[record]]
compound = "COc1cc(OC)cc(N(CC2CC2)c2ccc3ncc(-c4nnnn4C)nc3c2)c1 [Compound 83]"
reported = "<5"


Record COc1cc(OC)cc(N(CCO)c2ccc3ncc(C4CCN(C(=O)OC(C)(C)C)CC4)nc3c2)c1 [Compound 185] , field BAF3-KDR (MIN IL3) 384 well pIC50: <5

Record COc1cc(OC)cc(N(CCCO)c2ccc3ncc(-c4ccnc(C(=O)N5CCOCC5)c4)nc3c2)c1 [Compound 43] , field BAF3-KDR (MIN IL3) 384 well pIC50: 5.07

Record COc1cc(OC)cc(N(CC#Cc2ncccc2OC)c2ccc3ncc(-c4cccnc4)nc3c2)c1 [Compound 183] , field BAF3-KDR (MIN IL3) 384 well pIC50: <5

Record COc1cc(OC)cc(N(CCO)c2ccc3ncc(-c4ccc(N5CCOCC5)nc4)nc3c2)c1 [Compound 19] , field BAF3-KDR (MIN IL3) 384 well pIC50: <5

Record COc1cc(OC)cc(N(CC2CC2)c2ccc3ncc(-n4cncn4)nc3c2)c1 [Compound 50] , field BAF3-KDR (MIN IL3) 384 well pIC50: <5

Record COc1cc(OC)cc(N(CCCNCC(F)(F)F)c2ccc3ncc(C(=O)NCCN4CCOCC4)nc3c2)c1 [Compound 158] , field BAF3-KDR (MIN IL3) 384 well pIC50: <5

Record COc1cc(OC)cc(N(CCCNCC(F)(F)F)c2ccc3ncc(-c4ccn(C)c4)nc3c2)c1 [Compound 5] , field BAF3-KDR (MIN IL3) 384 well pIC50: 5.07

Record COc1cc(OC)cc(N(CC2CC2)c2ccc3ncc(-c4cccc(N5CCOCC5)c4)nc3c2)c1 [Compound 92] , field BAF3-KDR (MIN IL3) 384 well pIC50: <5

Record COc1cc(OC)cc(N(CC(OC(C)=O)C(F)(F)F)c2ccc3ncc(-c4cccnc4)nc3c2)c1 (single isomer, unassigned) [Compound 75] , field BAF3-KDR (MIN IL3) 384 well pIC50: <5

###

Below is a list of entries, each paired with its recorded BAF3-FGFR 1 (MIN IL3) 384 well pIC50 value.
# Subject of test: Ba/F3-FGFR1-transfected cells (Homo sapiens)
# Sequence (P11362 whole entry, change not shown): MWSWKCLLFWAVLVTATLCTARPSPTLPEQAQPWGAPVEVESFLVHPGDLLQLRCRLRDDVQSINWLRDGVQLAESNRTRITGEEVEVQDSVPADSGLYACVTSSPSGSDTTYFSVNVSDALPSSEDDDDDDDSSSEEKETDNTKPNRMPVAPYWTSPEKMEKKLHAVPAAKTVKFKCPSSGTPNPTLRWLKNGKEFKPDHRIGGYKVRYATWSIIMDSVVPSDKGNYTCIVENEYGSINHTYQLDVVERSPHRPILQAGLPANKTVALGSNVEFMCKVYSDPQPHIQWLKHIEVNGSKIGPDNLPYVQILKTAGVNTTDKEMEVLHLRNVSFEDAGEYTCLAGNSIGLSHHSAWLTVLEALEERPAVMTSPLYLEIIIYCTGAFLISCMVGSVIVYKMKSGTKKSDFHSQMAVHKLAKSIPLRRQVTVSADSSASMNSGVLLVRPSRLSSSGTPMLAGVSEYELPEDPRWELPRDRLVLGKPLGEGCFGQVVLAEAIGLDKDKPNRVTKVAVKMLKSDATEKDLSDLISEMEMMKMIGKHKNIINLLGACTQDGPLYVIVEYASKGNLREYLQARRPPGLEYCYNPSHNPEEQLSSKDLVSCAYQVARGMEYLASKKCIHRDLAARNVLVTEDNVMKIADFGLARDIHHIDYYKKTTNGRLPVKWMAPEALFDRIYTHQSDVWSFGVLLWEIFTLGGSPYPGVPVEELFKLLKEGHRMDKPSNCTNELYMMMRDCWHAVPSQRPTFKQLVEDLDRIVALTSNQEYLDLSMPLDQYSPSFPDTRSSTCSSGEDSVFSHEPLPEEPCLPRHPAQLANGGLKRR
# Protocol details: Ba/F3-FGFR1 (minus IL3) cellular proliferation assay, Alamar Blue
# Assay type: cell-based
# Condition: minus IL3, 384 well

Example cases with answers are listed next.
[[record]]
molecule = "COc1cc(OC)cc(N(CC2CC2)c2ccc3ncc(-c4nccs4)nc3c2)c1 [Compound 97]"
subject_of_test = "Ba/F3-FGFR1-transfected cells (Homo sapiens)"
reported = "<5"

[[record]]
molecule = "COc1cc(OC)cc(N(CCCNCC(F)(F)F)c2ccc3ncc(-c4ccnc(F)c4)nc3c2)c1 [Compound 144]"
subject_of_test = "Ba/F3-FGFR1-transfected cells (Homo sapiens)"
reported = "<5"


Now let's try a different one.
Record COc1cc(OC)cc(N(CC2CC2)c2ccc3ncc(-c4ocnc4C)nc3c2)c1 [Compound 104] , field BAF3-FGFR 1 (MIN IL3) 384 well pIC50: <5

###

Below is a list of entries, each paired with its recorded IC50 value.
# Subject of test: FGFR4 (h) (Homo sapiens, UniProt P22455)
# Sequence (P22455 22-802): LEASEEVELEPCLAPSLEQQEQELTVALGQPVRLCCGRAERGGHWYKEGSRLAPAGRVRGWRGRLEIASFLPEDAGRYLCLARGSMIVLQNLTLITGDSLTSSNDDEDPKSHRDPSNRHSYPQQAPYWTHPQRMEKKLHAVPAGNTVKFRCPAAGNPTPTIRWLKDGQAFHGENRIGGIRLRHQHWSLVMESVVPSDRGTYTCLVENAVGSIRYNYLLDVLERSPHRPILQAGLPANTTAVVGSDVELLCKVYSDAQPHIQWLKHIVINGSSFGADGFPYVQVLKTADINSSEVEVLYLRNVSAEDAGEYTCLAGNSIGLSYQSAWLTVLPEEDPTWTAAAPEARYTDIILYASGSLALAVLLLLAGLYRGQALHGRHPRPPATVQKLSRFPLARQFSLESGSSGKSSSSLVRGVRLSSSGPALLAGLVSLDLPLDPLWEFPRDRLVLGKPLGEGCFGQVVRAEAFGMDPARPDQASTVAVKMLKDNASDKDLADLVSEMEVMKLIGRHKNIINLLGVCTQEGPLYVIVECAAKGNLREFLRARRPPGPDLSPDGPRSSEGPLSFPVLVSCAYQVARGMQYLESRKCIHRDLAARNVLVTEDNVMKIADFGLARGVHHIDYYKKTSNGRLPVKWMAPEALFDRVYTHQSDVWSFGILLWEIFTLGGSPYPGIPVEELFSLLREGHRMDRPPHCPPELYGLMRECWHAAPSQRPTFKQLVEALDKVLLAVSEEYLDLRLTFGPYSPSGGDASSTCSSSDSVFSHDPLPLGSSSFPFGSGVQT
# Protocol details: FGFR4 (enzymatic assay), TR-FRET
# Format: biochemical
# Condition: read-out: FGFR 4 pIC50 (converted)

Record COc1cc(OC)cc(N(CC2CC2)c2ccc3ncc(-c4nnn(C)n4)nc3c2)c1 [Compound 82] , field IC50: > 1000 nM

Record CNC(=O)c1cc(-c2cnc3ccc(N(CCN4CCCC4=O)c4cc(OC)cc(OC)c4)cc3n2)ccn1 [Compound 25] , field IC50: > 1000 nM

Record CCOC(=O)c1ncn(-c2cnc3ccc(N(CC4CC4)c4cc(OC)cc(OC)c4)cc3n2)c1C [Compound 65] , field IC50: > 1000 nM

Record COc1cc(OC)cc(N(CC2CC2)c2ccc3ncc(C(=O)N4CCC4)nc3c2)c1 [Compound 93] , field IC50: > 10000 nM
